# Test description: in vitro
# Assay type: in vitro ADME
# Condition: human, microsomes; HLM 0.5 mg/mL, 1 μM, 60 min, Mean; read-out: Percent Remaining (%) 60 min
Quantity: remaining at 1 h (%)
Please state the figure in %; there is no need to write the unit.

So, C[C@@H](NC(=O)C1CCC(F)(F)C1)C(=O)N[C@H](Cc1ccccc1)C(=O)C(=O)NCc1nccs1 (stereo partly drawn) ? Its remaining at 1 h was 37

So, C[C@@H](NC(=O)C1CCC(F)(F)CC1)C(=O)N[C@H](Cc1ccccc1)C(=O)C(=O)NCc1nccs1 ? Its remaining at 1 h was 32.5

So, COC[C@@H](NC(=O)C1CCCC(F)(F)C1)C(=O)N[C@H](Cc1ccccc1)C(=O)C(=O)NCc1nccs1 (stereo partly drawn) ? Its remaining at 1 h was 29.8

So, O=C(CC1CC(F)(F)C1)NCC(=O)N[C@H](Cc1ccccc1)C(=O)C(=O)NCc1nccs1 ? Its remaining at 1 h was 19.1

So, COC[C@@H](NC(=O)C1CCC(F)(F)CC1)C(=O)N[C@H](Cc1ccccc1)C(=O)C(=O)NCc1nccs1 ? Its remaining at 1 h was 34.7

So, C[C@@H](NC(=O)C1CCCC(F)(F)C1)C(=O)N[C@H](Cc1ccccc1)C(=O)C(=O)NCc1nccs1 (stereo partly drawn) ? Its remaining at 1 h was 18.9

So, O=C(c1ccc(F)cc1)C1CCN(CCn2c(=O)[nH]c3ccccc3c2=O)CC1 [Ketanserin, reference compound] ? Its remaining at 1 h was 15.9

So, CC(C)(C)[C@H](NC(=O)C(F)(F)F)C(=O)N1C[C@H]2[C@@H]([C@H]1C(=O)N[C@H](C#N)C[C@@H]1CCNC1=O)C2(C)C [Nirmatrelvir, reference compound] ? Its remaining at 1 h was 18.6

So, COC[C@@H](NC(=O)CC1CC(F)(F)C1)C(=O)N[C@H](Cc1ccccc1)C(=O)C(=O)NCc1nccs1 ? Its remaining at 1 h was 26.5

----------
# Test description: in vivo
# Condition: male, beagle, dog, po, 10 mg/kg
Quantity: bioavailability (%)
Please state the figure in %; there is no need to write the unit.

So, COC[C@@H](NC(=O)C1CCCC(F)(F)C1)C(=O)N[C@H](Cc1ccccc1)C(=O)C(=O)NCc1nccs1 (stereo partly shown) ? Its bioavailability was 132

----------
Task for the reader: assign each of the following molecules its reported remaining at 0.75 h.
# Test description: in vitro
# Type: in vitro ADME
# Condition: human, microsomes; HLM 0.5 mg/mL, 1 μM, 45 min, Mean; read-out: Percent Remaining (%) 45 min
Please state the figure in %; there is no need to write the unit.

So, C[C@@H](NC(=O)C1CCC(F)(F)CC1)C(=O)N[C@H](Cc1ccccc1)C(=O)C(=O)NCc1nccs1 ? Its remaining at 0.75 h was 39.1

So, C[C@@H](NC(=O)C1CCC(F)(F)C1)C(=O)N[C@H](Cc1ccccc1)C(=O)C(=O)NCc1nccs1 (stereo partly drawn) ? Its remaining at 0.75 h was 46.2

So, COC[C@@H](NC(=O)CC1CC(F)(F)C1)C(=O)N[C@H](Cc1ccccc1)C(=O)C(=O)NCc1nccs1 ? Its remaining at 0.75 h was 34.3

So, O=C(c1ccc(F)cc1)C1CCN(CCn2c(=O)[nH]c3ccccc3c2=O)CC1 [Ketanserin, reference compound] ? Its remaining at 0.75 h was 24.4

So, O=C(CC1CC(F)(F)C1)NCC(=O)N[C@H](Cc1ccccc1)C(=O)C(=O)NCc1nccs1 ? Its remaining at 0.75 h was 30.3

So, COC[C@@H](NC(=O)C1CCC(F)(F)CC1)C(=O)N[C@H](Cc1ccccc1)C(=O)C(=O)NCc1nccs1 ? Its remaining at 0.75 h was 42.3

So, C[C@@H](NC(=O)C1CCCC(F)(F)C1)C(=O)N[C@H](Cc1ccccc1)C(=O)C(=O)NCc1nccs1 (stereo partly drawn) ? Its remaining at 0.75 h was 28.4

So, CC(C)(C)[C@H](NC(=O)C(F)(F)F)C(=O)N1C[C@H]2[C@@H]([C@H]1C(=O)N[C@H](C#N)C[C@@H]1CCNC1=O)C2(C)C [Nirmatrelvir, reference compound] ? Its remaining at 0.75 h was 26

So, COC[C@@H](NC(=O)C1CCCC(F)(F)C1)C(=O)N[C@H](Cc1ccccc1)C(=O)C(=O)NCc1nccs1 (stereo partly drawn) ? Its remaining at 0.75 h was 37.2
